tested on: THP-1 ASC-GFP cells; assay: THP-1 ASC-GFP speck assay (NLRP3 inflammasome activation, nigericin); type: cell-based; conditions: THP1-ASC-GFP; PMA-differentiated, LPS primed, 10 μM nigericin
Property label: IC50 (nM)
Answers are plain numbers, in nM.

Worked set:
INSERT INTO assay_data (compound, observed) VALUES
  ('CC(C)c1cc(C(F)(F)F)nc(C(C)C)c1NC(=O)NS(=O)(=O)c1cnn2c1OCC(C)(C)C2 [Example 82]', 1400),
  ('CN[C@@H]1COc2c(S(=O)(=O)NC(=O)Nc3c(C(C)C)cc(OC)nc3C(C)C)cnn2C1 [Example 41a]', 680),
  ('CO[C@@H]1COc2c(S(=O)(=O)NC(=O)Nc3c4c(nn3C(C)C)CCC4)cnn2C1 [Example 60a]', 570),
  ('CO[C@@H]1COc2c(S(=O)(=O)NC(=O)Nc3c(C(C)C)nn(CC(F)(F)F)c3C(C)C)cnn2C1 [Example 59a]', 170),
  ('CO[C@@H]1COc2c(S(=O)(=O)NC(=O)Nc3c(C(C)C)nn(C)c3C(C)C)cnn2C1 [Example 38a]', 2500);

Please examine the following record next.
Problem: Determine its reported IC50: CC(C)c1nn(C(F)(F)F)c(C(C)C)c1NC(=O)NS(=O)(=O)c1cnn2c1OCC(C)(C)C2 [Example 79]
Result: 740
